experimental-system: SMARCA2 (Homo sapiens)
Construct: endogenous in cells; host or cells: HT1080 (CRISPR HiBiT knock-in clone, generated in house)
Sequence (P51531 whole entry): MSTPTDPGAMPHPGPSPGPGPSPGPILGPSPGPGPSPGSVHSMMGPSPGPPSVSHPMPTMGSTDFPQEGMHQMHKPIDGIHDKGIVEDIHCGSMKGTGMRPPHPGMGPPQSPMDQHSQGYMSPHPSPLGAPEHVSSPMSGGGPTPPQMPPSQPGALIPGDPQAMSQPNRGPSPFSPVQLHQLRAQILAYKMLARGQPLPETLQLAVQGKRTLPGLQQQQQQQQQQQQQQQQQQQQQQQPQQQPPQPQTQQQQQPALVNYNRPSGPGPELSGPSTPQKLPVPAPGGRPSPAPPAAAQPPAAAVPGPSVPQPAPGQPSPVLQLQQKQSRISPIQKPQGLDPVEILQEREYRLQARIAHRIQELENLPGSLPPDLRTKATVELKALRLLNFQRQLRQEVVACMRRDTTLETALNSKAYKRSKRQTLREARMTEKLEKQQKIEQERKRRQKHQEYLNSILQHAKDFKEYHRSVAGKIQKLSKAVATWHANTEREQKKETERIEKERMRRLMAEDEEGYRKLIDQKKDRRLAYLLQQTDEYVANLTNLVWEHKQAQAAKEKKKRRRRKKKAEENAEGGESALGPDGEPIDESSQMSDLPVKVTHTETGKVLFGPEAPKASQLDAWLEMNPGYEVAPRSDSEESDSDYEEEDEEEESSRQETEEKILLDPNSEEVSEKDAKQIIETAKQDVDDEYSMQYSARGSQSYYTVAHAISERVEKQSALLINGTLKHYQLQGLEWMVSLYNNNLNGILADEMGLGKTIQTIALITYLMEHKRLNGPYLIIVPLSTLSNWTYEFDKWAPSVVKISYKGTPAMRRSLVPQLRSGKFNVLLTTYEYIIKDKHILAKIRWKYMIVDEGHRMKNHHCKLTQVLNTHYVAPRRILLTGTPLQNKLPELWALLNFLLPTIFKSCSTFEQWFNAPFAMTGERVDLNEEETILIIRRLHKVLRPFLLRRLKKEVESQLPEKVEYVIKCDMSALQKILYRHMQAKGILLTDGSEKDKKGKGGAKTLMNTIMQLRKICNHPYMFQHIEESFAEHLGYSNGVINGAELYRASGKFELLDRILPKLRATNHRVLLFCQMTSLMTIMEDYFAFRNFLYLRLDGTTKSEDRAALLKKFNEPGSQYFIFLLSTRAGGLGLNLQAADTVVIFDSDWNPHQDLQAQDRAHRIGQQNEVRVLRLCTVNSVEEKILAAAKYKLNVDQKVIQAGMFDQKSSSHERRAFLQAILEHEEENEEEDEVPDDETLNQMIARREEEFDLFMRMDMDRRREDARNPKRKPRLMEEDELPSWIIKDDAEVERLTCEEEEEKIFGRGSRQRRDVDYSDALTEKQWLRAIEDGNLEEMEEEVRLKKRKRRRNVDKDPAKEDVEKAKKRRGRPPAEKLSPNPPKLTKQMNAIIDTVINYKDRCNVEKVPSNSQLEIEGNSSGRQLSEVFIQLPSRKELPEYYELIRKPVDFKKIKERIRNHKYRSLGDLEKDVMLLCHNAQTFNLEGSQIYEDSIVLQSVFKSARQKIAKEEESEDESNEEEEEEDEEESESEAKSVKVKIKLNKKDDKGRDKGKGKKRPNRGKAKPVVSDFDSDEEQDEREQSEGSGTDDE
procedure-details: SMARCA2 HiBiT degradation assay (cellular)
Assay type: cell-based
experimental-parameters: 6 h incubation; HiBiT-tagged SMARCA2, luminescence read-out; table head names A549; read-out: HiBit A549 SMARCA2 IP (nM) 6 h
Please provide measured DC50 for the entries that follow.
Express your answer in nM, writing the number without its unit.

Q: Looking for the measured DC50 of Nc1nnc(-c2ccccc2O)cc1N1CCN(c2cccc(OCCN3CCN(C(=O)C4CCN(c5ccc6c(c5)C(=O)N(C5CCC(=O)NC5=O)C6=O)CC4)CC3)c2)C2(CC2)C1 (stereo not shown) , can you help?
Ans: 17

Q: Looking for the measured DC50 of Nc1nnc(-c2ccccc2O)cc1N1CCC(C(=O)N2CC3(CCN(C(=O)CCC4CCN(c5ccc6c(c5)C(=O)N(C5CCC(=O)NC5=O)C6=O)CC4)C3)C2)(c2ccccc2)CC1 (stereo not shown) , can you help?
Ans: 193

Q: Looking for the measured DC50 of Nc1nnc(-c2ccccc2O)cc1N1CC2CCC(C1)N2c1cccc(OCCN2CCN(C(=O)N3CCN(c4ccc(NC5CCC(=O)NC5=O)cc4)CC3)CC2)c1 (racemic) , can you help?
Ans: 16

Q: Looking for the measured DC50 of Nc1nnc(-c2ccccc2O)cc1N1CC2CCC(C1)N2c1cccc(CC2CCN(C(=O)C3CCN(c4ccc5c(c4)C(=O)N(C4CCC(=O)NC4=O)C5=O)CC3)CC2)c1 (racemic) , can you help?
Ans: 40
